test: chemical genetic growth profiling, strain panel (AID 1159580);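 note: tested at 20 µM; growth read once vehicle control cultures reached saturation at 30 °C; 1 = growth at the plate median or of vehicle wells; lower values mean less growth of the strain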; conditions: S. cerevisiae deletion strains, growth OD, locus YER015W, strain faa2
Screen size: about 5,500 compounds; about 2,000 (36%) were called active. Inconclusive results (about 18%) are left out. Cut-off read from the data, not from the text of the source: active = normalized growth mostly below about 0.91 (no sharp cut-off); inconclusive = no clear call, values can overlap the other calls; inactive = mostly above about 0.92. The list shows a part of the results.
Outcome field: choose from Yes for active, No for inactive

molecule: NC(=NCCCCCCN=C(N)N=C(N)Nc1ccc(Cl)cc1)N=C(N)Nc1ccc(Cl)cc1
discrete-label: Yes

molecule: COc1cc(O)c2c(c1)C(=O)c1cc(C)cc(O)c1C2=O
discrete-label: No

molecule: CC(=O)OC[C@@]1(O)C[C@@]23CCC4c5ccoc5CC[C@]4(C)C2CC[C@@H]1C3 (stereo partly specified)
discrete-label: No

molecule: CO/N=C(/C(=O)NC1C(=O)N2C(C(=O)OCOC(=O)C(C)(C)C)=C(/C=C\c3scnc3C)CSC12)c1csc(N)n1 (stereo unspecified)
discrete-label: No

molecule: COc1cc2c(cc1OC)C(C)NCC2 (stereo unspecified)
discrete-label: No

## Task Can you look up the reported call for "C=CC[C@@H]1/C=C(\C)C[C@H](C)C[C@H](OC)[C@H]2O[C@@](O)(C(=O)C(=O)N3CCCC[C@H]3C(=O)O[C@H](/C(C)=C/[C@@H]3CC[C@@H](O)[C@H](OC)C3)[C@H](C)[C@@H](O)CC1=O)[C@H](C)C[C@@H]2OC" for me?
## Result No

## Task Can you look up the reported call for COc1ccccc1OCC(O)COC(N)=O (stereo unspecified) for me?
## Result No

## Task Can you look up the reported call for "CON" for me?
## Result No

## Task Can you look up the reported call for "NS(=O)(=O)c1cc2c(cc1Cl)NCNS2(=O)=O" for me?
## Result No

## Task Can you look up the reported call for Cc1cc2nc3c(=O)[nH]c(=O)nc-3n(CC(O)C(O)C(O)CO)c2cc1C (stereo unspecified) for me?
## Result No

## Task Can you look up the reported call for "COc1cc(Cc2cnc(N)nc2N)cc(OC)c1OC" for me?
## Result No

## Task Can you look up the reported call for "O=C1NS(=O)(=O)c2ccccc21" for me?
## Result No

====

assay: chemical genetic growth profiling, strain panel (AID 1159580); details: S. cerevisiae deletion strains, growth OD, locus YLR133W, strain CKI1
In all, about 5,500 compounds went through this assay and about 2,000 (36%) were called active. Not shown: some 18% with an inconclusive outcome. Cut-off read from the data, not from the text of the source: active = normalized growth mostly below about 0.91 (no sharp cut-off); inconclusive = no clear call, values can overlap the other calls; inactive = mostly above about 0.92. The list shows a part of the results.
Outcome field: choose from active, inactive

compound: O=[N+]([O-])c1ccc(NCc2ccc(Cl)c(Cl)c2)nc1
discrete-label: inactive
--
compound: O=C1C(NCc2ccccc2)=C(NCc2ccccc2)C(=O)c2ccccc21
discrete-label: inactive
--
compound: COC(=O)c1cccc(NS(=O)(=O)c2ccc(Cl)c(Cl)c2)c1
discrete-label: inactive
--
compound: O=C(/C=C/c1ccc(Cl)cc1)Nc1cccc(Cl)c1
discrete-label: inactive
--
compound: O=C(Nc1cc(Cl)cc(Cl)c1)c1cc(Br)ccc1O
discrete-label: inactive
--
compound: NNC(=O)c1oc2nc(-c3ccccc3)cc(-c3ccccc3)c2c1N
discrete-label: inactive
--
compound: O=C(Nc1cc(Cl)cc(Cl)c1)c1cc(Cl)ccc1O
discrete-label: inactive
--
compound: S=C(NCCc1csc2ccccc12)Nc1ccc(Cl)cc1
discrete-label: inactive
--
compound: COc1cc(C2CC(=S)Nc3ccccc3S2)cc(OC)c1OC (stereo not drawn)
discrete-label: inactive
--
compound: Cc1cc(Sc2c([N+](=O)[O-])cc(C(F)(F)F)cc2[N+](=O)[O-])c(Cl)cc1Cl
discrete-label: inactive

## Task Can you look up the reported call for "N/C(=N/OCc1c(F)cccc1Cl)c1ccc(Cl)cc1" for me?
## Result inactive

## Task Can you look up the reported call for "O=C(OCCNc1ccc([N+](=O)[O-])cn1)c1ccc([N+](=O)[O-])o1" for me?
## Result inactive

## Task Can you look up the reported call for "CC(C)OC(=O)Nc1cc(Cl)cc(Cl)c1" for me?
## Result inactive

## Task Can you look up the reported call for "COC(=O)c1cc([N+](=O)[O-])ccc1S(=O)(=O)Cc1ccc(Cl)cc1" for me?
## Result inactive

## Task Can you look up the reported call for "O=C(NCc1ccc2c(c1)OCO2)c1cc2ccccc2s1" for me?
## Result active

====

assay: chemical genetic growth profiling, strain panel (AID 1159580); conditions: S. cerevisiae deletion strains, growth OD, locus YDR150W, strain NUM1
The whole screen tested about 5,500 compounds, of which about 2,000 (36%) were called active. Another 18% or so got no clear call; they are omitted. Cut-off read from the data, not from the text of the source: active = normalized growth mostly below about 0.91 (no sharp cut-off); inconclusive = no clear call, values can overlap the other calls; inactive = mostly above about 0.92. The list shows a part of the results.
Outcome field: choose from active, inactive

compound: COC[C@H]1OC(=O)c2coc3c2[C@@]1(C)C1=C(C3=O)C2CCC(=O)[C@@]2(C)C[C@H]1OC(C)=O (stereo partly specified)
discrete-label: active

compound: NC(CCP(=O)(O)O)C(=O)O (stereo unspecified)
discrete-label: inactive

compound: CCCCN(CC)c1c([N+](=O)[O-])cc(C(F)(F)F)cc1[N+](=O)[O-]
discrete-label: inactive

compound: COc1c([N+](=O)[O-])cc(C(F)(F)F)cc1[N+](=O)[O-]
discrete-label: inactive

compound: NC(=NCCCCCCN=C(N)N=C(N)Nc1ccc(Cl)cc1)N=C(N)Nc1ccc(Cl)cc1
discrete-label: active

compound: C=C(C)C1Cc2c(ccc3c(=O)c4c(oc23)COc2cc(OC)c(OC)cc2-4)O1 (stereo unspecified)
discrete-label: inactive

compound: CN(C)CCC[C@@]1(c2ccc(F)cc2)OCc2cc(C#N)ccc21
discrete-label: inactive

compound: COc1ccc(Oc2ccc(C(F)(F)F)cc2[N+](=O)[O-])cc1
discrete-label: inactive

## Task Can you look up the reported call for COP(=O)(NC(C)=O)SC (stereo unspecified) for me?
## Result inactive

## Task Can you look up the reported call for "CCCN(CCC)c1c([N+](=O)[O-])cc(C(F)(F)F)cc1[N+](=O)[O-]" for me?
## Result inactive

## Task Can you look up the reported call for "Nc1ccc(Sc2cc(Cl)ccc2Cl)nc1" for me?
## Result inactive

====

assay: chemical genetic growth profiling, strain panel (AID 1159580);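 note: tested at 20 µM; growth read once vehicle control cultures reached saturation at 30 °C; 1 = growth at the plate median or of vehicle wells; lower values mean less growth of the strain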; conditions: S. cerevisiae deletion strains, growth OD, locus YEL061C, strain CIN8 (second series), active compounds read low
About 2,000 (36%) of roughly 5,500 compounds were called active. About 18% were inconclusive and are not listed. The list shows a part of the results.
assay-readout: normalized growth
A bare number is all that is needed in reply.

## Task // fetch normalized growth given entry O=C(c1ccccc1)c1ccc2n1CCC2C(=O)O (stereo not drawn)
## Result 0.999

## Task // fetch normalized growth given entry ClC1C(Cl)C(Cl)C(Cl)C(Cl)C1Cl (stereo not drawn)
## Result 0.99

## Task // fetch normalized growth given entry "Cn1cnc2c1c(=O)[nH]c(=O)n2C"
## Result 0.974

====

assay: chemical genetic growth profiling, strain panel (AID 1159580);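 note: tested at 20 µM; growth read once vehicle control cultures reached saturation at 30 °C; 1 = growth at the plate median or of vehicle wells; lower values mean less growth of the strain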; details: S. cerevisiae deletion strains, growth OD, locus YNR052C, strain pop2, active compounds read low
Screen size: about 5,500 compounds; about 2,000 (36%) were called active. Inconclusive results (about 18%) are left out. Some of the results follow.
Reported normalized growth values follow for various compounds
A bare number is all that is needed in reply.

# count of solved cases: 3
compound: CNC(C)[C@@H]1CC[C@@H](N)[C@@H](OC2[C@@H](N)C[C@@H](N)[C@H](OC3OC[C@](C)(O)[C@H](NC)[C@H]3O)[C@H]2O)O1 (some centres undefined)
numeric-readout: 1.02

compound: C[N+]1(C)CCCC(OC(=O)C(O)(c2ccccc2)c2ccccc2)C1 (centres undefined)
numeric-readout: 0.975

compound: Cc1ccc(O)c(C(CCN(C(C)C)C(C)C)c2ccccc2)c1 (centres undefined)
numeric-readout: 0.988

Now for a further compound.
## Task // fetch normalized growth given entry COP(=O)(NC(C)=O)SC (centres undefined)
## Result 0.998

====

test: chemical genetic growth profiling, strain panel (AID 1159580);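 note: tested at 20 µM; growth read once vehicle control cultures reached saturation at 30 °C; 1 = growth at the plate median or of vehicle wells; lower values mean less growth of the strain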; conditions: S. cerevisiae deletion strains, growth OD, locus YLR113W, strain HOG1, active compounds read low
The whole screen tested about 5,500 compounds, of which about 2,000 (36%) were called active. About 18% were inconclusive and are not listed. Some of the results follow.
Reported normalized growth values follow for various molecules

sample-smiles: COC(=S)Nc1cc(Cl)cc(Cl)c1
normalized growth: 0.458 (active)

sample-smiles: COc1cc(O)ccc1C(C)=O
normalized growth: 1.01 (inactive)

sample-smiles: O=S(=O)(Nc1cc(C(F)(F)F)cc(C(F)(F)F)c1)c1ccc(Cl)s1
normalized growth: 0.55 (active)

sample-smiles: CC(C)OC(=O)Nc1cc(Cl)cc(Cl)c1
normalized growth: 0.479 (active)

sample-smiles: O=C(/C=C/c1ccc(Cl)cc1)Nc1cccc(Cl)c1
normalized growth: 0.816 (active)

Now for a further molecule.
## Task // fetch normalized growth given entry "COC(=O)c1sccc1S(=O)(=O)Nc1cc(C(F)(F)F)cc(C(F)(F)F)c1"
## Result 0.902 (inactive)

Cited source for all entries: PubChem BioAssay AID1159580
